Test system: HCC1143
Experiment: normalised response (% of control), CellTox Green; higher = less cell death (100 = DMSO, 0 = benzethonium chloride kill control)
Conditions: incubation time: 72 h
For each record, write down the corresponding normalised response.
Give just the numeric value; % need not be written.

Note down normalised response recorded for CN(C)CCN1C(=O)c2cccc3cc(N)cc(c23)C1=O [Amonafide] (10000 nM)
93.5

Note down normalised response recorded for CC(C)c1c(C(=O)Nc2ccccc2)c(-c2ccccc2)c(-c2ccc(F)cc2)n1CC[C@@H](O)C[C@@H](O)CC(=O)O [Atorvastatin] (10000 nM)
101

Note down normalised response recorded for CO[C@H]1C[C@@H]2CC[C@@H](C)[C@@](O)(O2)C(=O)C(=O)N2CCCC[C@H]2C(=O)O[C@H]([C@H](C)C[C@@H]2CC[C@@H](OCCO)[C@H](OC)C2)CC(=O)[C@H](C)/C=C(\C)[C@@H](O)[C@@H](OC)C(=O)[C@H](C)C[C@H](C)/C=C/C=C/C=C/1C [Everolimus] (10 nM)
109

Note down normalised response recorded for COc1ccc(-c2ccc3c(N4CCOC[C@@H]4C)nc(N4CCOC[C@@H]4C)nc3n2)cc1CO [AZD8055] (1000 nM)
74.1

Note down normalised response recorded for NS(=O)(=O)OC[C@@H]1C[C@@H](n2ccc3c(N[C@H]4CCc5ccccc54)ncnc32)C[C@@H]1O [Pevonedistat] (1000 nM)
96.1

Note down normalised response recorded for COc1ccc(-c2ccc3c(N4CCOC[C@@H]4C)nc(N4CCOC[C@@H]4C)nc3n2)cc1CO [AZD8055] (100 nM)
80.1

Note down normalised response recorded for Cn1c(=O)n(-c2ccc(C(C)(C)C#N)cc2)c2c3cc(-c4cnc5ccccc5c4)ccc3ncc21 [Dactolisib] (1000 nM)
130

Note down normalised response recorded for C/C(=C\c1csc(C)n1)[C@@H]1C[C@@H]2O[C@]2(C)CCC[C@H](C)[C@H](O)[C@@H](C)C(=O)C(C)(C)[C@@H](O)CC(=O)O1 [Patupilone] (1000 nM)
53.7

Note down normalised response recorded for CC(C)c1c(C(=O)Nc2ccccc2)c(-c2ccccc2)c(-c2ccc(F)cc2)n1CC[C@@H](O)C[C@@H](O)CC(=O)O [Atorvastatin] (100 nM)
109

Note down normalised response recorded for CNNCc1ccc(C(=O)NC(C)C)cc1 [Procarbazine] (100 nM)
99.4

Note down normalised response recorded for CCCCCCCCc1ccc(CCC(N)(CO)CO)cc1 [Fingolimod] (100 nM)
103

Note down normalised response recorded for O=C1NC(=O)[C@@H](c2cn3c4c(cccc24)CCC3)[C@@H]1c1c[nH]c2ccccc12 [Tivantinib] (1000 nM)
104

Note down normalised response recorded for O=C(O)CCCc1ccc(N(CCCl)CCCl)cc1 [Chlorambucil] (1000 nM)
98.2

Note down normalised response recorded for CO[C@H]1C[C@@H]2CC[C@@H](C)[C@@](O)(O2)C(=O)C(=O)N2CCCC[C@H]2C(=O)O[C@H]([C@H](C)C[C@@H]2CC[C@@H](OCCO)[C@H](OC)C2)CC(=O)[C@H](C)/C=C(\C)[C@@H](O)[C@@H](OC)C(=O)[C@H](C)C[C@H](C)/C=C/C=C/C=C/1C [Everolimus] (100 nM)
66.4

Note down normalised response recorded for CN(C)C[C@@H]1CCn2cc(c3ccccc32)C2=C(C(=O)NC2=O)c2cn(c3ccccc23)CCO1 [Ruboxistaurin] (1000 nM)
109

Note down normalised response recorded for C/C(=C\c1csc(C)n1)[C@@H]1C[C@@H]2O[C@]2(C)CCC[C@H](C)[C@H](O)[C@@H](C)C(=O)C(C)(C)[C@@H](O)CC(=O)O1 [Patupilone] (100 nM)
103

Note down normalised response recorded for O=C(O)CCCc1ccc(N(CCCl)CCCl)cc1 [Chlorambucil] (10000 nM)
102

Note down normalised response recorded for COc1ccccc1S(=O)(=O)Nc1ccc2c(c1)CN(C)C(=O)N2 [PFI-1] (100 nM)
82.6

Note down normalised response recorded for C[C@]12CC[C@H](O)CC1=CC[C@@H]1[C@@H]2CC[C@]2(C)C(c3cccnc3)=CC[C@@H]12 [Abiraterone] (5000 nM)
107

---

For each record, write down the corresponding normalised response.
Test system: CAL-120
Test: normalised response (% of control), CellTox Green; higher = less cell death (100 = DMSO, 0 = benzethonium chloride kill control)
Conditions: incubation time: 72 h
Give just the numeric value; % need not be written.

Note down normalised response recorded for O=C1NC(=O)[C@@H](c2cn3c4c(cccc24)CCC3)[C@@H]1c1c[nH]c2ccccc12 [Tivantinib] (1000 nM)
74.4

Note down normalised response recorded for C/C(=C\c1csc(C)n1)[C@@H]1C[C@@H]2O[C@]2(C)CCC[C@H](C)[C@H](O)[C@@H](C)C(=O)C(C)(C)[C@@H](O)CC(=O)O1 [Patupilone] (1000 nM)
87.5

Note down normalised response recorded for CN1CCN(CCOc2cc(OC3CCOCC3)c3c(Nc4c(Cl)ccc5c4OCO5)ncnc3c2)CC1 [Saracatinib] (1000 nM)
96.6

Note down normalised response recorded for C[C@]12CC[C@H](O)CC1=CC[C@@H]1[C@@H]2CC[C@]2(C)C(c3cccnc3)=CC[C@@H]12 [Abiraterone] (5000 nM)
98

---

Test system: CAL-120
Test: normalised response (% of control), CellTox Green; higher = less cell death (100 = DMSO, 0 = benzethonium chloride kill control)
Details: incubation time: 72 h
For each record, write down the corresponding normalised response.
Give just the numeric value; % need not be written.

Please indicate recorded normalised response of C[C@]12CC[C@H](O)CC1=CC[C@@H]1[C@@H]2CC[C@]2(C)C(c3cccnc3)=CC[C@@H]12 [Abiraterone] (500 nM) measured with CAL-120.
99.1

Please indicate recorded normalised response of Nc1nc(OCc2cc(Br)cs2)c2[nH]cnc2n1 [Lomeguatrib] (1000 nM) measured with CAL-120.
102

Please indicate recorded normalised response of c1ccc([C@H]2CN3CCSC3=N2)cc1 [Levamisole] (1000 nM) measured with CAL-120.
100

Please indicate recorded normalised response of C/C(=C\c1csc(C)n1)[C@@H]1C[C@@H]2O[C@]2(C)CCC[C@H](C)[C@H](O)[C@@H](C)C(=O)C(C)(C)[C@@H](O)CC(=O)O1 [Patupilone] (100 nM) measured with CAL-120.
77.9

Please indicate recorded normalised response of CNNCc1ccc(C(=O)NC(C)C)cc1 [Procarbazine] (1000 nM) measured with CAL-120.
106

Please indicate recorded normalised response of NS(=O)(=O)OC[C@@H]1C[C@@H](n2ccc3c(N[C@H]4CCc5ccccc54)ncnc32)C[C@@H]1O [Pevonedistat] (100 nM) measured with CAL-120.
102

Please indicate recorded normalised response of O=C(O)CCCc1ccc(N(CCCl)CCCl)cc1 [Chlorambucil] (1000 nM) measured with CAL-120.
98.5

Please indicate recorded normalised response of CN(C)CCN1C(=O)c2cccc3cc(N)cc(c23)C1=O [Amonafide] (10000 nM) measured with CAL-120.
101

Please indicate recorded normalised response of CO[C@H]1C[C@@H]2CC[C@@H](C)[C@@](O)(O2)C(=O)C(=O)N2CCCC[C@H]2C(=O)O[C@H]([C@H](C)C[C@@H]2CC[C@@H](OCCO)[C@H](OC)C2)CC(=O)[C@H](C)/C=C(\C)[C@@H](O)[C@@H](OC)C(=O)[C@H](C)C[C@H](C)/C=C/C=C/C=C/1C [Everolimus] (10 nM) measured with CAL-120.
101

Please indicate recorded normalised response of CN1CCN(CCOc2cc(OC3CCOCC3)c3c(Nc4c(Cl)ccc5c4OCO5)ncnc3c2)CC1 [Saracatinib] (10000 nM) measured with CAL-120.
94.5

Please indicate recorded normalised response of CC(C)c1c(C(=O)Nc2ccccc2)c(-c2ccccc2)c(-c2ccc(F)cc2)n1CC[C@@H](O)C[C@@H](O)CC(=O)O [Atorvastatin] (100 nM) measured with CAL-120.
98.4

Please indicate recorded normalised response of CN(C)CCN1C(=O)c2cccc3cc(N)cc(c23)C1=O [Amonafide] (1000 nM) measured with CAL-120.
98.9

Please indicate recorded normalised response of COc1ccc(-c2ccc3c(N4CCOC[C@@H]4C)nc(N4CCOC[C@@H]4C)nc3n2)cc1CO [AZD8055] (100 nM) measured with CAL-120.
98.2

Please indicate recorded normalised response of CCCCCCCCc1ccc(CCC(N)(CO)CO)cc1 [Fingolimod] (100 nM) measured with CAL-120.
104

---

Tested on: MCF-10A
Assay: normalised response (% of control), CellTiter-Glo; higher = more viable cells (100 = DMSO, 0 = benzethonium chloride kill control)
Details: incubation time: 72 h
For each record, write down the corresponding normalised response.
Give just the numeric value; % need not be written.

Note down normalised response recorded for NS(=O)(=O)OC[C@@H]1C[C@@H](n2ccc3c(N[C@H]4CCc5ccccc54)ncnc32)C[C@@H]1O [Pevonedistat] (10000 nM)
91.2

Note down normalised response recorded for C[C@]12CC[C@H](O)CC1=CC[C@@H]1[C@@H]2CC[C@]2(C)C(c3cccnc3)=CC[C@@H]12 [Abiraterone] (5000 nM)
109

Note down normalised response recorded for CN(C)CCN1C(=O)c2cccc3cc(N)cc(c23)C1=O [Amonafide] (10000 nM)
45

Note down normalised response recorded for Nc1ncnc2c1c(COc1cccc(Cl)c1)nn2C1CCOCC1 (10000 nM)
89.3

Note down normalised response recorded for Cn1cncc1[C@@](N)(c1ccc(Cl)cc1)c1ccc2c(c1)c(-c1cccc(Cl)c1)cc(=O)n2C [Tipifarnib] (10000 nM)
74.3
